target: exocyst holocomplex (Homo sapiens, UniProt Q9NV70+Q9UPT5); construct: Sf9 baculovirus; hetero-octamer; 6xHis-mNeonGreen-Exoc6 (tag kept), 6xHis-MBP on Exoc5 cut with HRV3C, other subunits untagged; with Exocyst complex component 2; Exocyst complex component 3; Exocyst complex component 4; Exocyst complex component 5; Exocyst complex component 6; Exocyst complex component 8; assay: membrane-coated bead recruitment, confocal fluorescence, single-site fit; settings: apparent affinity in protein concentration; 5 mol% PI(4,5)P2, 85% POPC, 10% phosphatidylserine on silica beads; room temperature, 30 min; 20 mM HEPES, 150 mM NaCl; read-out: KD,relative
measuredProperty: Kd (nM)
Value expressed in nM; do not type the unit.

# Kd (compound: CCCCCCCCCCCCCCCC(=O)OC[C@H](COP(=O)(O)O[C@@H]1[C@H](O)[C@H](O)[C@@H](OP(=O)(O)O)[C@H](OP(=O)(O)O)[C@H]1O)OC(=O)CCCCCCCCCCCCCCC [PI(4,5)P2] ) is 99.4
